# EXPERIMENTAL_DETAILS: qHTS of pediatric cancer cell lines to identify multiple opportunities for drug repurposing: Primary screen for MG 63 (6-TG R) cells (AID 1347105); note: nearly all actives have a fitted effect of over 50% in size
# ASSAY_CONTEXT: MG 63 (6-TG R) viability, CellTiter-Glo, 48 h; series mostly up to 46 µM
Inconclusive results are not listed. Active and inactive are the calls of the source. Calls come from the whole dose curve; as a rule, active = well fitted cell-killing curve with a large enough effect; inconclusive = small, poorly fitted or top-dose-only effect; inactive = no such curve, though single readings can be large or run the other way.
Hi there, use one of these labels in your reply, thanks! True for active, False for inactive

Examples from the recorded data:
MOLECULE: CC1(C)O[C@@H]2C[C@H]3[C@@H]4CCC5=CC(=O)C=C[C@]5(C)[C@@H]4[C@@H](O)C[C@]3(C)[C@]2(C(=O)CO)O1
LABEL_VALUE: False
//
MOLECULE: CN1[C@H]2CC(OC(=O)[C@@H](CO)c3ccccc3)C[C@H]1[C@H]1O[C@H]12 (some centres undefined)
LABEL_VALUE: False
//
MOLECULE: CC(=O)NCC(=O)N1[C@H]2CC[C@H]1c1cc(Nc3ncc(C(F)(F)F)c(NC4CCC4)n3)ccc12
LABEL_VALUE: True

Shift focus to the following entry.
Just curious, what result did C=CC(=O)N1CCc2ccc(-n3c(=O)ccc4cnc5ccc(-c6cnn(C)c6)cc5c43)cc21 get here? True

###

# EXPERIMENTAL_DETAILS: Quantitative High-Throughput drug screen in 47 multiple myeloma cell lines against the NCATS MIPE library collection: INA6_PLB cell viability assay (AID 1918965; note: potency is the fitted concentration of half-maximal effect; nearly all actives have a fitted effect of over 55% in size)
# ASSAY_CONTEXT: INA6 myeloma viability, CellTiter-Glo ATP luminescence, 48 h; series mostly up to 45.8 µM
Inconclusive results are not listed. Calls of active or inactive are those of the source. The call rests on the fitted dose curve; in most records, active means well fitted cell-killing curve with a large enough effect; inconclusive means small, poorly fitted or top-dose-only effect, or effect the other way; inactive means no such curve, though single readings can be large or run the other way.
METRIC: Potency

MOLECULE: COc1cc(OC)cc(-c2ccc3ncc4ccc(=O)n(-c5ccc(N6CCNCC6)c(C(F)(F)F)c5)c4c3c2)c1
Potency: 3720 nM (active)
//
MOLECULE: N#Cc1c(NC(=O)c2cccc3ccccc23)sc2c1CCCC2
Potency: 296 nM (active)
//
MOLECULE: C=CCNc1c(O)cc2c(O)c1C[C@@H](C)C[C@H](OC)[C@@H](O)[C@@H](C)C=C(C)[C@H](OC(N)=O)[C@@H](OC)C=CC=C(C)C(=O)N2
Potency: 187 nM (active)
//
MOLECULE: N#Cc1ccc(COC[C@H]2O[C@@H](n3c(NCc4ccc(Cl)c(Cl)c4)nc4c(N)ncnc43)[C@@H](O)[C@@H]2O)cc1
Potency: 7430 nM (active)
//
MOLECULE: COc1ccc(C=Cc2cc(OC)c(OC)c(OC)c2)cc1NC(=O)[C@H](N)CO
Potency: 1 nM (active)
//
MOLECULE: CC(C)(N)c1ccc(-c2nc3ccccc3nc2-c2ccccc2)cc1
Potency: 9350 nM (active)
//
MOLECULE: CN[C@@H]1C[C@H]2O[C@@](C)([C@H]1OC)n1c3ccccc3c3c4c(c5c6ccccc6n2c5c31)C(=O)N[C@H]4O
Potency: 41.8 nM (active)

Lab note: next compound to report on.
Report Potency for Nc1ccc(C(=O)Nc2cccc(-c3nc(N4CCOCC4)c4oc5ncccc5c4n3)c2)cn1 please. 3320 nM (active)

###

# EXPERIMENTAL_DETAILS: High-throughput drug toxicity screening in the BPDCN cell line Cal-1 (AID 1224825);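 note: cells exposed to compounds for 48 h; 100% = DMSO and 0% = bortezomib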
# ASSAY_CONTEXT: Cal-1 BPDCN cell viability, qHTS; at 45.8 µM (top of the series) unless noted
METRIC: viability (% of control) (%)
State the answer as a number, implicitly in %.

MOLECULE: COC1=C(OC)C(=O)C(CC=C(C)CCC=C(C)CCC=C(C)CCC=C(C)CCC=C(C)CCC=C(C)CCC=C(C)CCC=C(C)CCC=C(C)CCC=C(C)C)=C(C)C1=O
viability (% of control) (%): 111
//
MOLECULE: COc1cc(C)c(Sc2cnc(NC(=O)c3ccc(CNC(C)C(C)(C)C)cc3)s2)cc1C(=O)N1CCN(C(C)=O)CC1 (stereo not drawn)
viability (% of control) (%): 3.38
//
MOLECULE: C#C[C@]1(O)CC[C@@H]2[C@@H]3CCC4=CC(=O)CC[C@@H]4[C@H]3CC[C@@]21CC
viability (% of control) (%): 114

Report viability (% of control) for Cn1cc(-c2cnn3c(N)c(Br)c([C@H]4CCCNC4)nc23)cn1 please. 14.4

Report viability (% of control) for CCCCCCCCc1ccc(CCC(N)(CO)CO)cc1 please. 3.28

Report viability (% of control) for CC[C@H]1OC(=O)[C@H](C)[C@@H](O[C@H]2C[C@@](C)(OC)[C@@H](O)[C@H](C)O2)[C@H](C)[C@@H](O[C@@H]2O[C@H](C)C[C@H](N(C)C)[C@@H]2O)[C@](C)(OC)C[C@@H](C)C(=O)[C@H](C)[C@@H](O)[C@]1(C)O please. 108

Report viability (% of control) for Cc1cc(O)c2c(c1)C(=O)c1cccc(O)c1C2=O please. 94.6

###

# EXPERIMENTAL_DETAILS: Quantitative High-Throughput drug screen in 47 multiple myeloma cell lines against the NCATS MIPE library collection: XG6_PLB cell viability assay (AID 1919865); note: nearly all actives have a fitted effect of over 40% in size
# ASSAY_CONTEXT: XG6 myeloma viability, CellTiter-Glo ATP luminescence, 48 h; series mostly up to 45.8 µM
Results filed as inconclusive are left out. Active and inactive are the calls of the source. The call rests on the fitted dose curve; in most records, active means well fitted cell-killing curve with a large enough effect; inconclusive means small, poorly fitted or top-dose-only effect, or effect the other way; inactive means no such curve, though single readings can be large or run the other way.
Hi there, use one of these labels in your reply, thanks! active, inactive

Examples from the recorded data:
COMPOUND: Cc1cnc(Nc2ccc(N3CCN(C)CC3)cc2)nc1Nc1cccc(S(=O)(=O)NC(C)(C)C)c1
LABEL_VALUE: active
//
COMPOUND: CC(=CC(=O)Nc1ccccc1C(=O)O)c1ccc2ccccc2c1
LABEL_VALUE: active
//
COMPOUND: Cn1cnc(=N)c2[nH]cnc21
LABEL_VALUE: active
//
COMPOUND: CCOc1cc2c(c(F)c1OCC)C(=N)N(CC(=O)c1cc(N3CCOCC3)c(OC)c(C(C)(C)C)c1)C2
LABEL_VALUE: active
//
COMPOUND: CC(=O)OCC(=O)[C@@]1(O)CC[C@H]2[C@@H]3CCC4=CC(=O)CC[C@]4(C)[C@@H]3C(=O)C[C@@]21C
LABEL_VALUE: inactive

Just curious, what result did N#Cc1ccc(COC[C@H]2O[C@@H](n3c(NCc4ccc(Cl)c(Cl)c4)nc4c(N)ncnc43)[C@@H](O)[C@@H]2O)cc1 get here? active

Just curious, what result did CN[C@H](CC(C)C)C(=O)N[C@H]1C(=O)N[C@@H](CC(N)=O)C(=O)N[C@@H]2C(=O)N[C@H]3C(=O)N[C@H](C(=O)N[C@H](C(=O)O)c4cc(O)cc(O)c4-c4cc3ccc4O)[C@H](O)c3ccc(c(Cl)c3)Oc3cc2cc(c3O[C@@H]2O[C@H](CO)[C@@H](O)[C@H](O)[C@@H]2O[C@H]2C[C@](C)(N)[C@H](O)[C@H](C)O2)Oc2ccc(cc2Cl)[C@H]1O get here? active

Just curious, what result did Cn1cc(C=CC(=O)c2cccc(F)c2)cc1C=CC(=O)NO get here? active

Just curious, what result did COC1=C(OC)C(=O)C(CC=C(C)CCC=C(C)CCC=C(C)CCC=C(C)CCC=C(C)CCC=C(C)CCC=C(C)CCC=C(C)CCC=C(C)CCC=C(C)C)=C(C)C1=O get here? inactive

Just curious, what result did CCOC(=O)N1CCN([N+]([O-])=NOc2ccc([N+](=O)[O-])cc2[N+](=O)[O-])CC1 get here? active

###

# EXPERIMENTAL_DETAILS: qHTS of pediatric cancer cell lines to identify multiple opportunities for drug repurposing: Primary screen for Saos-2 cells (AID 1347097); note: nearly all actives have a fitted effect of over 40% in size
# ASSAY_CONTEXT: Saos-2 viability, CellTiter-Glo ATP luminescence, 48 h; series mostly up to 46 µM
# Method: Drug repurposing or repositioning has been offered as a strategy for drug development in oncology programs. This approach has special potential for childhood cancers and other rare or orphan diseases, where the expected return on new drug development has been a disincentive to pharmaceuticals. […] We employed a titration-based paradigm (quantitative high-throughput screening or qHTS), where all compounds were tested at multiple concentrations for their effect on cell viability. […]
Results filed as inconclusive are left out. The source made the active and inactive calls. Calls follow the shape of the dose curve; as a rule, active = well fitted cell-killing curve with a large enough effect; inconclusive = small, poorly fitted or top-dose-only effect; inactive = no such curve, though single readings can be large or run the other way.
Hi there, use one of these labels in your reply, thanks! active, inactive

Examples from the recorded data:
COMPOUND: CC(=O)N1CCN(c2ccc(OCc3nn(C)c(C)c3-c3cccc4c(CCCOc5cccc6ccccc56)c(C(=O)O)n(Cc5cccnc5)c34)cc2)CC1
LABEL_VALUE: active
--
COMPOUND: NC(=O)c1cccc(-c2cccc(OC(=O)NC3CCCCC3)c2)c1
LABEL_VALUE: inactive
--
COMPOUND: CNC(=O)c1ccc(Nc2cc(Nc3ccccc3S(=O)(=O)C(C)C)c3cc[nH]c3n2)nc1
LABEL_VALUE: active
--
COMPOUND: CN[C@@H]1C[C@H]2O[C@@](C)([C@H]1OC)n1c3ccccc3c3c4c(c5c6ccccc6n2c5c31)C(=O)N[C@H]4O
LABEL_VALUE: active
--
COMPOUND: OCCN1C[C@H](O)[C@@H](O)[C@H](O)[C@@H]1CO
LABEL_VALUE: inactive

Just curious, what result did Cn1cc(C2=C(c3c4n(c5ccccc35)CCC(CN)C4)C(=O)NC2=O)c2ccccc21 (configuration not stated) get here? active

Just curious, what result did CC(C)(O)[C@H]1CC[C@@](C)([C@H]2[C@@H](O)C[C@@]3(C)[C@@H]4C[C@H](O[C@@H]5O[C@H](CO)[C@@H](O)[C@H](O)[C@@H]5O)[C@H]5C(C)(C)[C@@H](O[C@@H]6OC[C@@H](O)[C@H](O)[C@@H]6O)CC[C@@]56C[C@@]46CC[C@]23C)O1 get here? inactive
